experiment: Permeability of the compound in PBS buffer at pH 7.4 incubated for 16 hrs by LC-MS/MS based PAMPA assay
Assay type: ADME
protocol conditions: read-out: permeability
measured quantity: Papp at 16 h (×10⁻⁶ cm/s)

INSERT INTO results (structure_smiles, measured_quantity, recorded_result) VALUES
  ('Cc1ncsc1-c1ccc(CNC(=O)[C@@H]2C[C@@H](O)CN2C(=O)[C@@H](NC(=O)COCCOCCNC(=O)COc2cnc3c(C4CCN(C(=O)c5ccc(OC(F)(F)F)cc5)CC4)ncnc3c2)C(C)(C)C)cc1', 'Papp at 16 h', 6.3),
  ('Cc1ncsc1-c1ccc(CNC(=O)[C@@H]2C[C@@H](O)CN2C(=O)[C@@H](NC(=O)CN2CCC(CCCOc3cnc4c(C5CCN(C(=O)c6ccc(OC(F)(F)F)cc6)CC5)ncnc4c3)CC2)C(C)(C)C)cc1', 'Papp at 16 h', 6.9),
  ('Cc1ncsc1-c1ccc(CNC(=O)[C@@H]2C[C@@H](O)CN2C(=O)[C@@H](NC(=O)CCOCCOCCOc2cnc3c(C4CCN(C(=O)c5ccc(OC(F)(F)F)cc5)CC4)ncnc3c2)C(C)(C)C)cc1', 'Papp at 16 h', 5.42),
  ('Cc1ncsc1-c1ccc(CNC(=O)[C@@H]2C[C@@H](O)CN2C(=O)[C@@H](NC(=O)COCc2cn(CCOc3cnc4c(C5CCN(C(=O)c6ccc(OC(F)(F)F)cc6)CC5)ncnc4c3)nn2)C(C)(C)C)cc1', 'Papp at 16 h', 7.94),
  ('Cc1ncsc1-c1ccc(CNC(=O)[C@@H]2C[C@@H](O)CN2C(=O)[C@@H](NC(=O)CCOCCNC(=O)COc2cnc3c(C4CCN(C(=O)c5ccc(OC(F)(F)F)cc5)CC4)ncnc3c2)C(C)(C)C)cc1', 'Papp at 16 h', 6.21),
  ('Cc1ncsc1-c1ccc(CNC(=O)[C@@H]2C[C@@H](O)CN2C(=O)[C@@H](NC(=O)CCCCCCCCOc2cnc3c(C4CCN(C(=O)c5ccc(OC(F)(F)F)cc5)CC4)ncnc3c2)C(C)(C)C)cc1', 'Papp at 16 h', 8.29),
  ('Cc1ncsc1-c1ccc(CNC(=O)[C@@H]2C[C@@H](O)CN2C(=O)[C@@H](NC(=O)CN(C)CCCCCCOc2cnc3c(C4CCN(C(=O)c5ccc(OC(F)(F)F)cc5)CC4)ncnc3c2)C(C)(C)C)cc1', 'Papp at 16 h', 6.67),
  ('Cc1ncsc1-c1ccc(CNC(=O)[C@@H]2C[C@@H](O)CN2C(=O)[C@@H](NC(=O)Cc2ccc(OCCOc3cnc4c(C5CCN(C(=O)c6ccc(OC(F)(F)F)cc6)CC5)ncnc4c3)cn2)C(C)(C)C)cc1', 'Papp at 16 h', 7.28),
  ('Cc1ncsc1-c1ccc(CNC(=O)[C@@H]2C[C@@H](O)CN2C(=O)[C@@H](NC(=O)Cc2ccc(OCCOc3cnc4c(C5CCN(C(=O)c6ccc(OC(F)(F)F)cc6)CC5)ncnc4c3)cc2)C(C)(C)C)cc1', 'Papp at 16 h', 7.56);

Values were extracted from ChEMBL document CHEMBL6087447.
